Hey, just so you know, these numbers are from patent US8343983B2.

# Test system: cancer cells
# MEASUREMENT NOTES: MTS assay: inhibition of cell growth (formazan absorbance at 492 nm after 72 hours with test compound)
# Type: cell-based
# RECORDED CONDITIONS: Homo sapiens, PC-3 cells, inhibition class, read-out: PC-3, MTS 72 hours at 10 uM
PROPERTY MEASURED: inhibition at 10 µM

INSERT INTO assay_data (smiles, property_measured, reported_value) VALUES
  ('Fc1cccc(CCNc2nc3c4c(n[nH]c4n2)CCN3Cc2ccccc2)c1', 'inhibition at 10 µM', '< 50%');

Lookup: Endpoint output: inhibition at 10 µM of "FC(F)(F)c1cccc(N2CCN(c3nc4c5c(n[nH]c5n3)CCN4Cc3ccccc3)CC2)c1" . Value?
Found: < 50%

Lookup: Endpoint output: inhibition at 10 µM of "c1ccc(CN2CCc3n[nH]c4nc(NCCCN5CCOCC5)nc2c34)cc1" . Value?
Found: < 50%

Lookup: Endpoint output: inhibition at 10 µM of "Clc1cccc(Oc2ccccc2)c1CNc1nc2c3c(n[nH]c3n1)CCN2Cc1ccccc1" . Value?
Found: 50 to 79%

Lookup: Endpoint output: inhibition at 10 µM of "c1ccc(CN2CCc3n[nH]c4nc(NCc5ccc(-c6ccccc6)cc5)nc2c34)cc1" . Value?
Found: < 50%

Lookup: Endpoint output: inhibition at 10 µM of "COc1cccc(N2CCN(c3nc4c5c(n[nH]c5n3)CCN4Cc3ccccc3)CC2)c1" . Value?
Found: > 79%

Lookup: Endpoint output: inhibition at 10 µM of "OCCN1CCN(c2nc3c4c(n[nH]c4n2)CCN3Cc2ccccc2)CC1" . Value?
Found: < 50%
